- protocol notes: CNS penetration
- Format: in vivo, male CD Sprague Dawley rats
- condition details: male, CD Sprague Dawley, iv; rat, 1 mg/kg i.v., brain 5 min post-dose
Counter-ions that a name gives are not always drawn.
readout label: concentration at 5 min

Qu. Need concentration at 5 min, item C[C@@H]1CCCN1CCCOc1ccc(N2CCN(C(=O)c3ccc(F)cc3F)CC2=O)cc1 [Example E1, formate salt]
Ans. ~57.5 ng/g
